Examples of compounds with documented stability of stock solution in DMSO follow.
Experiment: Stability of stock and working solutions at -20°C
Type: physicochemical
Conditions: 1 mg/mL in DMSO, -20°C ±5°C
Experimental: The stability of stock and working solutions, as well the stability of IS stock solution, following storage at -20°C ±5°C were investigated by concordance verification by comparing the stored solution against a freshly prepared one.

chem_smiles	stability of stock solution in DMSO
[2H]C1([2H])N[C@]2(CS[C@@H]3c4c(OC(C)=O)c(C)c5c(c4[C@H](COC2=O)N2[C@@H]3[C@@H]3N[C@@H](Cc4cc(C)c(OC)c(O)c43)[C@@H]2O)OCO5)c2[nH]c3ccc(OC)cc3c2C1([2H])[2H]	≥ 28 days
COc1ccc2[nH]c3c(c2c1)CCN[C@]31CS[C@@H]2c3c(OC(C)=O)c(C)c4c(c3[C@H](COC1=O)N1[C@@H]2[C@H]2c3c(cc(C)c(OC)c3O)C[C@@H]([C@@H]1O)N2C)OCO4	≥ 32 days
[2H]C1([2H])N[C@]2(CS[C@@H]3c4c(OC(C)=O)c(C)c5c(c4[C@H](COC2=O)N2[C@@H]3[C@H]3c4c(cc(C)c(OC)c4O)C[C@@H]([C@@H]2O)N3C)OCO5)c2[nH]c3ccc(OC)cc3c2C1([2H])[2H]	≥ 36 days
COc1ccc2[nH]c3c(c2c1)CCN[C@]31CS[C@@H]2c3c(OC(C)=O)c(C)c4c(c3[C@H](COC1=O)N1[C@@H]2[C@@H]2N[C@@H](Cc3cc(C)c(OC)c(O)c32)[C@@H]1O)OCO4	≥ 28 days

###

assay: Plasma protein binding by rapid equilibrium dialysis (RED) in K3-EDTA plasma from donors; format: in vitro ADME, human; conditions: human, three donors, 500 ng/mL, day 91 after storage at -80°C ±10°C; read-out: mean percent unbound

molecule	fraction unbound at 8 h, 500 ng/mL
COc1ccc2[nH]c3c(c2c1)CCN[C@]31CS[C@@H]2c3c(OC(C)=O)c(C)c4c(c3[C@H](COC1=O)N1[C@@H]2[C@H]2c3c(cc(C)c(OC)c3O)C[C@@H]([C@@H]1O)N2C)OCO4 [Lurbinectedin]	0.00159 to 0.00213

###

test: Plasma protein binding by rapid equilibrium dialysis (RED) in K3-EDTA plasma from donors; format: in vitro ADME, human; details: human, previously frozen K3-EDTA plasma (four freeze-thaw cycles), previously frozen plasma (four freeze-thaw cycles), 100 ng/mL, RED 8 hours 37°C; read-out: mean percent unbound

chem_smiles	fraction unbound at 8 h, 100 ng/mL
COc1ccc2[nH]c3c(c2c1)CCN[C@]31CS[C@@H]2c3c(OC(C)=O)c(C)c4c(c3[C@H](COC1=O)N1[C@@H]2[C@H]2c3c(cc(C)c(OC)c3O)C[C@@H]([C@@H]1O)N2C)OCO4	0.00443

###

target: recombinant human AAG and albumin (Homo sapiens, UniProt P02768); construct: purchased Sigma-Aldrich; experiment: Plasma protein binding by RED in artificial plasma (PBS with recombinant human AAG and albumin); assay type: in vitro ADME; details: human, without AAG, albumin 40 mg/mL, lurbinectedin 500 ng/mL; read-out: mean percent unbound
Sequence (P02768 25-609): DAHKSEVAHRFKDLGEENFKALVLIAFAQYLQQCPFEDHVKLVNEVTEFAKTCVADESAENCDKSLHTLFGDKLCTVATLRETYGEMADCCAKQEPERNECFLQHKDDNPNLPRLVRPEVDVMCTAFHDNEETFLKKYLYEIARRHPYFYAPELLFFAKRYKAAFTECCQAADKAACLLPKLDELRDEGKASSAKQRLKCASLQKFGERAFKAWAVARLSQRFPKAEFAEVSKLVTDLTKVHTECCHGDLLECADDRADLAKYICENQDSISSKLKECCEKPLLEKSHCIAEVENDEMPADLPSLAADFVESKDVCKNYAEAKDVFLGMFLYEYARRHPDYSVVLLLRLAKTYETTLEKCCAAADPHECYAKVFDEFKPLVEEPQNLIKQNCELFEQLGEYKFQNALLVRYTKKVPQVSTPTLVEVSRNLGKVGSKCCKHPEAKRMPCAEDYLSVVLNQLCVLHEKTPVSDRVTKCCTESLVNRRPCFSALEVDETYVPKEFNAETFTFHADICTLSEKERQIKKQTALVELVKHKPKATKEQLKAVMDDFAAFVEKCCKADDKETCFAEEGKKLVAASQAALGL
property_measured: fraction unbound at 8 h, 500 ng/mL

chem_smiles	measurement
COc1ccc2[nH]c3c(c2c1)CCN[C@]31CS[C@@H]2c3c(OC(C)=O)c(C)c4c(c3[C@H](COC1=O)N1[C@@H]2[C@H]2c3c(cc(C)c(OC)c3O)C[C@@H]([C@@H]1O)N2C)OCO4	0.0895

###

assay: Plasma protein binding by rapid equilibrium dialysis (RED) in K3-EDTA plasma from donors; assay type: in vitro ADME, human; details: human, three donors, 500 ng/mL, day 21 after storage at -80°C ±10°C; read-out: mean percent unbound
property_measured: fraction unbound at 8 h, 500 ng/mL

compound	property_measured	measurement
COc1ccc2[nH]c3c(c2c1)CCN[C@]31CS[C@@H]2c3c(OC(C)=O)c(C)c4c(c3[C@H](COC1=O)N1[C@@H]2[C@H]2c3c(cc(C)c(OC)c3O)C[C@@H]([C@@H]1O)N2C)OCO4 [Lurbinectedin]	fraction unbound at 8 h, 500 ng/mL	0.00206 to 0.00319

###

experiment: Plasma protein binding by RED in artificial plasma (PBS with recombinant human AAG and albumin); assay type: in vitro ADME; conditions: human, AAG 0.75 mg/mL, albumin 40 mg/mL, lurbinectedin 500 ng/mL; read-out: mean percent unbound

chem_smiles	fraction unbound at 8 h, 500 ng/mL
COc1ccc2[nH]c3c(c2c1)CCN[C@]31CS[C@@H]2c3c(OC(C)=O)c(C)c4c(c3[C@H](COC1=O)N1[C@@H]2[C@H]2c3c(cc(C)c(OC)c3O)C[C@@H]([C@@H]1O)N2C)OCO4	0.00604

###

test: Plasma protein binding by rapid equilibrium dialysis (RED) in K3-EDTA plasma from donors; type: in vitro ADME, human; details: human, three donors, 500 ng/mL, day 62 after storage at -80°C ±10°C; read-out: mean percent unbound
property_measured: fraction unbound at 8 h, 500 ng/mL

molecule	measurement
COc1ccc2[nH]c3c(c2c1)CCN[C@]31CS[C@@H]2c3c(OC(C)=O)c(C)c4c(c3[C@H](COC1=O)N1[C@@H]2[C@H]2c3c(cc(C)c(OC)c3O)C[C@@H]([C@@H]1O)N2C)OCO4 [Lurbinectedin]	0.00196 to 0.00286
